Provide the reported cytotoxicity at 10 µM of each item.
- experiment_summary: Toxicity liver stage against HepG2, at 10uM
- Type: cell-based
- Set-up: test concentration 10 uM, cell line HepG2-A16-CD81EGFP
- stated_conditions: human, HepG2-A16-CD81EGFP cells; read-out: INHIBITION
Respond with the bare value in %.

Find the recorded cytotoxicity at 10 µM belonging to CC(=O)NCC1CCN(C(=O)c2c(C)[nH]c3ccc(Cl)cc23)CC1 and report it. 8.11

Find the recorded cytotoxicity at 10 µM belonging to c1cnnc(N2CCCC(NCc3nc(-c4ccsc4)no3)C2)c1 (centres undefined) and report it. 7.79

Find the recorded cytotoxicity at 10 µM belonging to c1cc(-c2cn3nccc3nc2C2CCCCC2)nc(N2CCCC2)n1 and report it. 10.7

Find the recorded cytotoxicity at 10 µM belonging to Cc1cnc(N2CC3(CCN(C(=O)c4cccnc4)C3)C2)nc1 and report it. 2.55

Find the recorded cytotoxicity at 10 µM belonging to c1ccc(-n2ccc(CN3CCCCC3Cn3cncn3)n2)cc1 (centres undefined) and report it. -7.85

Find the recorded cytotoxicity at 10 µM belonging to CCc1ncc2c(n1)CN(CC(=O)NCCOc1ccccc1)CC2 and report it. -2.11

Find the recorded cytotoxicity at 10 µM belonging to CCc1c(C)nc(C)nc1N1C[C@@H](CN(CC)CCO)[C@@H](CO)C1 and report it. 1.5

Find the recorded cytotoxicity at 10 µM belonging to CN(Cc1cccnc1)[C@@H]1CN(Cc2nccn2C)[C@@H]2CCCO[C@H]12 and report it. -9.46

Find the recorded cytotoxicity at 10 µM belonging to O=C(NC1CCN(C(=O)C2CCCCC2)C1)c1ccncc1Cl (centres undefined) and report it. 10.4

Find the recorded cytotoxicity at 10 µM belonging to Cc1nc(CN2CCN(C(=O)COCc3ccccc3)CC2)no1 and report it. -14.1

Find the recorded cytotoxicity at 10 µM belonging to CC(C)CN1CCC2(CC(C(=O)NCc3cccnc3)=NO2)C1 (centres undefined) and report it. -5.99

Find the recorded cytotoxicity at 10 µM belonging to COc1cccc(OCCNCc2ccccc2)c1 and report it. 10.7

Find the recorded cytotoxicity at 10 µM belonging to CC(C)c1noc(C(C)N2CCN(CCO)CC2)n1 (centres undefined) and report it. -2.26

Find the recorded cytotoxicity at 10 µM belonging to Cc1nc(CC(=O)N(C)C2CCCN(CCc3ccccc3)C2)cs1 (centres undefined) and report it. 3.13

Find the recorded cytotoxicity at 10 µM belonging to CC(C)c1ncc2c(n1)CN(Cc1nc(-c3ccccn3)no1)CC2 and report it. 1.59

Find the recorded cytotoxicity at 10 µM belonging to CC(C)(C)NC(=O)C1CSCN1S(=O)(=O)c1ccc(F)cc1 (centres undefined) and report it. 0.65

Find the recorded cytotoxicity at 10 µM belonging to O=C(NCCN1CCOCC1)C1=NOC2(CCN(Cc3nccs3)C2)C1 (centres undefined) and report it. -79.3

Find the recorded cytotoxicity at 10 µM belonging to Cc1cn2c(n1)CCC(NC(=O)c1cc[nH]n1)C2 (centres undefined) and report it. -8.06

Find the recorded cytotoxicity at 10 µM belonging to Cc1cn2c(=O)c(-c3ccnc(N4CCC[C@@H]4CO)n3)cnc2s1 and report it. -9.52

Find the recorded cytotoxicity at 10 µM belonging to Cc1cnn(CCNCC(=O)NCC2(c3ccccc3)CC2)c1 and report it. 5.58

Find the recorded cytotoxicity at 10 µM belonging to CSCC(CCO)Nc1cccc(C(F)(F)F)n1 (centres undefined) and report it. 0.515

Find the recorded cytotoxicity at 10 µM belonging to CC(C)c1cc(C(=O)N2CCOCC2CC(=O)c2ccco2)nn1C (centres undefined) and report it. 5.52

Find the recorded cytotoxicity at 10 µM belonging to NC(=O)CNC(=O)c1ccc(CNCc2ccc(F)cc2F)cc1 and report it. -43.4

Find the recorded cytotoxicity at 10 µM belonging to Cc1noc(C)c1CN1C[C@@H]2COC[C@]2(COc2ccc(C#N)cn2)C1 and report it. 9.49
